Quick reference: TNF-α of the listed items.
Test system: TNF-α
Test: Inflammatory factor TNF-α in blood and brain tissues of rats with acute cerebral ischemia-reperfusion
Type: in vivo, SD rats
Settings: 4 mg/kg iv 2 h after reperfusion; 4 h after administration; n=5
Respond numerically; units are ng/L and should not be typed.

COc1cc(/C=C/C(=O)O[C@H]2C[C@H]3CC[C@]2(C)C3(C)C)ccc1O [D-bornyl ferulate, reference compound] | 658

CC1(C)[C@@H]2CC[C@@]1(C)[C@@H](OC(=O)[C@H](O)Cc1ccc(O)c(O)c1)C2 [D-tanshinol borneol ester, reference compound] yielded TNF-α of 687

Lab note: COc1cc(CCC(=O)O[C@H]2C[C@H]3CC[C@]2(C)C3(C)C)cc(O)c1O gave TNF-α of 645

The compound listed as CC1(C)[C@@H]2CC[C@@]1(C)[C@@H](OC(=O)CCc1ccc(O)c(OC(F)(F)F)c1)C2 shows TNF-α equal to 573

----------
Test: Distribution in brain: plasma and intracerebral concentrations after intravenous injection
Type: in vivo
Settings: both sexes, rat, plasma; rats, 4 mg/kg iv, 10 min; read-out: Mean Plasma Concentration
Catalogue of concentration at 10 min values
Response body: numeric value in ng/mL, unit text excluded.

For COc1cc(CCC(=O)O[C@H]2C[C@H]3CC[C@]2(C)C3(C)C)c(Br)cc1O the molecule record lists concentration at 10 min as 1400

The molecule COc1cc(/C=C/C(=O)O[C@H]2C[C@H]3CC[C@]2(C)C3(C)C)ccc1O [D-bornyl ferulate, reference compound] showed concentration at 10 min equal to 2890

// field: concentration at 10 min; key: COc1cc(CCC(=O)O[C@H]2C[C@H]3CC[C@]2(C)C3(C)C)cc(O)c1O ; value = 1530

----------
System: platelet aggregation induced with ADP
Assay: Maximum platelet aggregation rate of rabbits, induced with ADP
Assay type: cell-based
Details: Oryctolagus cuniculus, Platelet, rabbit plasma, 4 mg/kg as printed, n=3
Parameter measured: inhibition at 4 mg/kg (%)
Return type: number; implicit unit %.

Past entries and their recorded results:
CC(=O)Oc1ccccc1C(=O)O [Aspirin, aspirin, reference compound] | 54.1
CC1(C)[C@@H]2CC[C@@]1(C)[C@@H](OC(=O)[C@H](O)Cc1ccc(O)c(O)c1)C2 [D-tanshinol borneol ester, reference compound] | 43.8
COc1cc(CCC(=O)O[C@H]2C[C@H]3CC[C@]2(C)C3(C)C)cc(O)c1O | 46.8

Record summary for COc1cc(CCC(=O)O[C@H]2C[C@H]3CC[C@]2(C)C3(C)C)c(Br)cc1O : reported inhibition at 4 mg/kg = 55.3

----------
Assay: Distribution in brain: plasma and intracerebral concentrations after intravenous injection
Type: in vivo
Conditions: both sexes, rat, brain; rats, 4 mg/kg iv, 180 min; read-out: Mean Intracerebral Concentration
concentration at 180 min below 200 ng/g gives not fulfilled; concentration at 180 min at or above it gives fulfilled.

Example entries and their recorded answers appear below.
COc1cc(CCC(=O)O[C@H]2C[C@H]3CC[C@]2(C)C3(C)C)cc(O)c1O | fulfilled
COc1cc(/C=C/C(=O)O[C@H]2C[C@H]3CC[C@]2(C)C3(C)C)ccc1O [D-bornyl ferulate, reference compound] | fulfilled
COc1cc(CCC(=O)O[C@H]2C[C@H]3CC[C@]2(C)C3(C)C)cc(F)c1O | fulfilled
CC1(C)[C@@H]2CC[C@@]1(C)[C@@H](OC(=O)CCc1ccc(O)c(OC(F)(F)F)c1)C2 | fulfilled
COc1cc(CCC(=O)O[C@H]2C[C@H]3CC[C@]2(C)C3(C)C)cc(OC)c1O | not fulfilled
CC1(C)[C@@H]2CC[C@@]1(C)[C@@H](OC(=O)[C@H](O)Cc1ccc(O)c(O)c1)C2 [D-tanshinol borneol ester, reference compound] | not fulfilled

Then this molecule:
stdin: API: above_or_equal(metric=concentration at 180 min, cutoff=200 ng/g) for item COc1cc(CCC(=O)O[C@H]2C[C@H]3CC[C@]2(C)C3(C)C)c(Br)cc1O
stdout: fulfilled

----------
Assay: Distribution in brain: plasma and intracerebral concentrations after intravenous injection
Type: in vivo
Conditions: both sexes, rat, brain/plasma; rats, 4 mg/kg iv, 10 min; read-out: Brain/Blood Concentration Ratio
Parameter measured: Kp at 10 min
Response field accepts a number only; no unit should be typed.

CC1(C)[C@@H]2CC[C@@]1(C)[C@@H](OC(=O)[C@H](O)Cc1ccc(O)c(O)c1)C2 [D-tanshinol borneol ester, reference compound] | 0.47
COc1cc(CCC(=O)O[C@H]2C[C@H]3CC[C@]2(C)C3(C)C)cc(OC)c1O | 2.9
COc1cc(CCC(=O)O[C@H]2C[C@H]3CC[C@]2(C)C3(C)C)cc(O)c1O | 1.6

Recorded result, COc1cc(CCC(=O)O[C@H]2C[C@H]3CC[C@]2(C)C3(C)C)cc(F)c1O , Kp at 10 min: 2.6

----------
Test system: TNF-α
Assay: Inflammatory factor TNF-α in blood and brain tissues of rats with acute cerebral ischemia-reperfusion
Assay type: in vivo, SD rats
Settings: 4 mg/kg iv 2 h after reperfusion; 4 h after administration; n=5
Parameter measured: TNF-α (ng/L)
Reply with just the number (in ng/L).

According to the records, this compound COc1cc(CCC(=O)O[C@H]2C[C@H]3CC[C@]2(C)C3(C)C)cc(OC)c1O [Compound C] displays TNF-α of 634

----------
Test system: TNF-α
Test: Inflammatory factor TNF-α in blood and brain tissues of rats with acute cerebral ischemia-reperfusion
Assay type: in vivo, SD rats
Conditions: 4 mg/kg iv 2 h after reperfusion; 4 h after administration; n=5
compounds and their reported TNF-α
Write it as a number; the unit ng/L goes unstated.

COc1cc(CCC(=O)O[C@H]2C[C@H]3CC[C@]2(C)C3(C)C)c(Br)cc1O [Compound D] | 562
COc1cc(CCC(=O)O[C@H]2C[C@H]3CC[C@]2(C)C3(C)C)cc(F)c1O [Compound A] | 615

Would you kindly look at the next entry?
For CC(=O)Oc1ccccc1C(=O)O [Aspirin, aspirin, reference compound] on TNF-α, measured TNF-α was 647
